# Tested on: U251 CNS
# assay-notes: NCI-60 one-dose screen, 48 h (100 = growth as untreated, 0 = no growth, -100 = all killed)
# experimental-conditions: 10 µM unless noted
This is part of a sample that, as a whole, favours compounds with a hit. Of some 83,000 tested, about 20% had one in any assay.
// reported growth for each item listed

{"columns": ["compound", "unit-label", "growth"],
 "data": [
  ["O=C(CCCCl)NNc1nccc(Nc2ccc(S(=O)(=O)Nc3ccncc3)cc2)n1", "%", 103],
  ["Cc1ccc(/C=C2\\CN(C(=O)C(Cl)Cl)C/C(=C\\c3ccc(C)cc3)C2=O)cc1", "%", -94.9],
  ["Cc1ccc(/C=C/C(=O)c2ccc(NC(=O)CSc3nc4c([nH]3)c(=O)n(C)c(=O)n4C)cc2)c(C)c1", "%", -67.5],
  ["CCOc1ccc(NC(=O)c2cc(OC)c(OC)c(OC)c2)cc1", "%", 30.1],
  ["O=C(Cn1cc(CN2C(=O)c3ccccc3S2(=O)=O)nn1)Nc1cccc(Cl)c1", "%", 112],
  ["O=C(c1ccc(Cl)cc1Cl)N1c2ccccc2Sc2ccccc21", "%", 33.1],
  ["COc1ccc2[nH]cc(-c3nc(-c4cn(C)c5ccncc45)cs3)c2c1", "%", -71.5],
  ["CCN(CC)CCCC(C)Nc1ccc2cc(OC)ccc2n1 (stereo not given)", "%", 97.9],
  ["CC(C(=O)O)n1c(O)c(C=Nc2cccnc2)sc1=S (stereo not given)", "%", 86.3],
  ["COc1ccc(-c2nnc(SCC(=O)Nc3ccc(/C(C)=N\\O)cc3)n2-c2ccccc2)cc1OC", "%", 34.4],
  ["N#Cc1nc(-c2ccc(F)cc2)oc1S(=O)(=O)N1CCN(c2ccc(F)cc2)CC1", "%", 86.7],
  ["CC(C)CCC[C@@H](C)C1CCC2C3CCC4=C/C(=N/OCCN(C)C)CC[C@]4(C)C3CC[C@@]21C (stereo not given in full)", "%", 79.2],
  ["O=C(/C=C/C12c3ccccc3C(c3ccccc31)C1C(=O)NC(=O)C12)c1ccc(F)cc1 (stereo not given)", "%", -44.4],
  ["Cc1ccc(C(=O)c2ccc(CC(=O)N/N=C/c3ccc(O)cc3O)n2C)cc1", "%", 37.6],
  ["CCN=C1C=CC(=C(c2ccc(N(C)C)cc2)c2ccc(N(C)C)cc2)c2ccccc21", "%", -3.23]
]}

* * *

# Test system: BT-549 breast
# assay-notes: NCI-60 one-dose screen, 48 h (100 = growth as untreated, 0 = no growth, -100 = all killed)
# experimental-conditions: 10 µM unless noted
The panel holds about 83,000 compounds, 20% with a hit somewhere; the sample as a whole holds those more often.

{"columns": ["molecule", "unit-label", "growth"],
 "data": [
  ["CCNCc1ccc(O)c2ncccc12", "%", 40.8],
  ["COc1ccc2nc(Cl)c(/C=C/C(=O)c3ccc(NC(=O)CSc4nnc(-c5ccc(Cl)c(Cl)c5)n4-c4ccccc4)cc3)cc2c1", "%", 80],
  ["O=C1NC(=Nc2ccc(O)cc2)S/C1=C\\c1cccs1", "%", 35.8],
  ["COc1ccc(/C(C)=C(\\c2ccc(OCCN3CCCCCC3)cc2)c2ccc(OC(=O)c3ccccc3)cc2)cc1", "%", 63.6],
  ["O=C(c1ccc(Cl)cc1Cl)N1c2ccccc2Sc2ccccc21", "%", 54.6],
  ["COc1ccc(C2=C/C(=C\\c3ccc(Cl)cc3)C(=O)N2/N=C/c2ccc(Cl)cc2)cc1", "%", 101],
  ["CC1O[C@@H]2C[C@@](O)([C@H]1O)n1c3ccccc3c3c4c(c5c6ccccc6n2c5c31)C(=O)NC4=O (some centres undefined)", "%", 36.3],
  ["Cc1ccc(-c2cc(C(=O)N3N=C(c4ccc(N)cc4)CC3c3ccc(Cl)cc3)c3ccccc3n2)cc1 (centres undefined)", "%", 30.8],
  ["O=C(CCCCCCN1CC(=O)N2[C@@H](c3ccc(Cl)cc3)c3[nH]c4ccccc4c3C[C@H]2C1=O)NO", "%", 77.2],
  ["COc1ccc2c(c1)c(-c1nc(-c3cn(C)c4ncccc34)cs1)cn2CCO", "%", 76.9],
  ["CCCCCCCCn1ccc2cc(NC(=O)Cn3cc(CN4CCC(C)CC4)nn3)ccc21", "%", 78.1],
  ["O=C1OCC2=C1C(c1cccc(F)c1)c1cc3c(cc1N2CCO)OCO3 (centres undefined)", "%", 32.8],
  ["CCCn1c(=S)sc2c1nc(C)n1c(Nc3ccccc3)nnc21", "%", 76.2],
  ["C=CCn1c(SCC(=O)Nc2ccc(C(=O)/C=C/c3ccc(OC)cc3)cc2)nnc1-c1ccccc1", "%", 43.8],
  ["COc1ccc(C2CC(c3ccc(Nc4nc(Nc5ccc(F)cc5)nc(Nc5ccc(F)cc5)n4)cc3)=NN2C(C)=O)cc1 (centres undefined)", "%", 96.2],
  ["Cc1nc2ccccc2c(/C=C/c2ccc(C(F)(F)F)cc2)c1C(=O)/C=C/c1ccccc1", "%", -0.148],
  ["N=C(N)SCc1cccc2c(CSC(=N)N)cccc12", "%", 107],
  ["COc1cccc(Nc2ccnc3[nH]c4ccc([N+](=O)[O-])cc4c23)c1", "%", 80.3],
  ["Cn1cc(-c2ccc3cc(-c4ccc(CC(=O)Nc5cc(C(C)(C)C)on5)cc4)cnc3c2)cn1", "%", 33]
]}
